# method notes: PK study in Sprague-Dawley rats
# Assay type: in vivo
# experimental setup: rat, plasma, iv, 1 mg/kg
property: Cmax (ng/mL)
Give bare numbers, in ng/mL.

Qu. Need Cmax, item Cn1c(Cn2ccc(C(F)(F)F)c(Oc3cccc4cnccc34)c2=O)n[nH]c1=O
Ans. 456

* * *

# method notes: PK study in Sprague-Dawley rats
# Assay type: in vivo
# experimental setup: rat, plasma, iv, 1 mg/kg
property: half-life (min)
Numbers only, in min.

Qu. Need half-life, item Cn1c(Cn2ccc(C(F)(F)F)c(Oc3cccc4cnccc34)c2=O)n[nH]c1=O
Ans. 17.4

* * *

Please go through the items and note down their EC50.
# Tested on: HIV-1 mutant E138K
# method notes: Anti-HIV-1 efficacy against mutant E138K in MT-4 cells
# Assay type: cell-based
# experimental setup: Human immunodeficiency virus 1, MT4, read-out: EC50 E138K
One number for each entry, in nM.

Some solved entries appear below for comparison.
molecule	property	quantitative readout
Cc1cncc(Oc2c(C(F)(F)F)ccn(Cc3n[nH]c(=O)n3C)c2=O)c1	EC50	770
Cn1c(Cn2ccc(C(F)(F)F)c(Oc3cncc(Br)c3)c2=O)n[nH]c1=O	EC50	620
Cn1c(Cn2ccc(C(F)(F)F)c(Oc3cncc(Cl)c3)c2=O)n[nH]c1=O	EC50	610
Cn1c(Cn2ccc(C(F)(F)F)c(Oc3cccc4cnccc34)c2=O)n[nH]c1=O	EC50	49
Cn1c(Cn2ccc(C(F)(F)F)c(Oc3cncc4ccccc34)c2=O)n[nH]c1=O	EC50	900
Cn1c(Cn2ccc(C(F)(F)F)c(Oc3cc(Cl)cc(C#N)c3)c2=O)n[nH]c1=O [DOR, doravirine, reference compound]	EC50	7.5

Qu. Need EC50, item Cc1cc(C#N)cc(C)c1Oc1nc(Nc2ccc(C#N)cc2)nc(N)c1Br [ETR, etravirine, reference compound]
Ans. 6

* * *

# method notes: PK study in Sprague-Dawley rats
# Type: in vivo
# experimental setup: rat, plasma, iv, 1 mg/kg, AUC0‒∞, 1.0 mg/kg (i.v.)
property: AUC (ng·h/mL)
Answers are plain numbers, in ng·h/mL.

Qu. Need AUC, item Cn1c(Cn2ccc(C(F)(F)F)c(Oc3cccc4cnccc34)c2=O)n[nH]c1=O
Ans. 230

* * *

# method notes: PK study in Sprague-Dawley rats
# Assay type: in vivo
# experimental setup: rat, plasma, iv, 1 mg/kg, AUC0‒t, 1.0 mg/kg (i.v.)
property: AUC (µg·h/mL)
Numbers only, in µg·h/mL.

Qu. Need AUC, item Cn1c(Cn2ccc(C(F)(F)F)c(Oc3cccc4cnccc34)c2=O)n[nH]c1=O [7w]
Ans. 0.229

* * *

# method notes: PK study in Sprague-Dawley rats
# Format: in vivo
# experimental setup: rat, plasma, po, 5 mg/kg, AUC0‒∞, 5.0 mg/kg (p.o.)
property: AUC (ng·h/mL)
Give bare numbers, in ng·h/mL.

Qu. Need AUC, item Cn1c(Cn2ccc(C(F)(F)F)c(Oc3cccc4cnccc34)c2=O)n[nH]c1=O
Ans. 312

* * *

Please go through the items and note down their EC50.
# Test system: HIV-1 mutant K103N
# method notes: Anti-HIV-1 efficacy against mutant K103N in MT-4 cells
# Assay type: cell-based
# experimental setup: Human immunodeficiency virus 1, MT4, read-out: EC50 K103N

Some solved entries appear below for comparison.
molecule	target or system	EC50
Cn1c(Cn2ccc(C(F)(F)F)c(Oc3cc(Cl)cc(C#N)c3)c2=O)n[nH]c1=O [DOR, doravirine, reference compound]	HIV-1 mutant K103N	42 nM
Cn1c(Cn2ccc(C(F)(F)F)c(Oc3cncc4ccccc34)c2=O)n[nH]c1=O [7u]	HIV-1 mutant K103N	3010 nM
Cc1cncc(Oc2c(C(F)(F)F)ccn(Cc3n[nH]c(=O)n3C)c2=O)c1 [7h]	HIV-1 mutant K103N	1200 nM
Cn1c(Cn2ccc(C(F)(F)F)c(Oc3cccc4cnccc34)c2=O)n[nH]c1=O [7w]	HIV-1 mutant K103N	71 nM
Cn1c(Cn2ccc(C(F)(F)F)c(Oc3cncc(Br)c3)c2=O)n[nH]c1=O [7e]	HIV-1 mutant K103N	950 nM

I would be grateful if you could provide EC50 for each of the following entries.
1. Cc1cc(C#N)cc(C)c1Oc1nc(Nc2ccc(C#N)cc2)nc(N)c1Br [ETR, etravirine, reference compound]
2. Cn1c(Cn2ccc(C(F)(F)F)c(Oc3cncc(Cl)c3)c2=O)n[nH]c1=O [7a]

Ans.
1. 2 nM
2. 1220 nM
